The reported numbers originate from patent US20140107109A1.

target.or.test.system: Cathepsin D (Cat D) (Homo sapiens)
Construct: Recombinant Cat D was expressed in CHO cells; made in house; host or cells: CHO cells
Sequence (P07339 65-412, species assumed): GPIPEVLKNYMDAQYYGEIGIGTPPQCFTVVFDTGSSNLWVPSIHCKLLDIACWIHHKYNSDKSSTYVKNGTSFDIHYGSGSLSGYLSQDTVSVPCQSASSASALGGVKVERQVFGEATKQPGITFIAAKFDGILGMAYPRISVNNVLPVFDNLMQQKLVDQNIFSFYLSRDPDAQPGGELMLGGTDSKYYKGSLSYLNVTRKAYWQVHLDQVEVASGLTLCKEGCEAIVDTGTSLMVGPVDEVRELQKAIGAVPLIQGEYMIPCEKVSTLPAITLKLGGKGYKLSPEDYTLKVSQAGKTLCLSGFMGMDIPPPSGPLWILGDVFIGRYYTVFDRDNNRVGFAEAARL
experiment.notes: In vitro enzymatic Cathepsin D (Cat D) FRET assay
Type: biochemical
condition.summary: read-out: CatD IC50
With a cut-off of 400 µM, any IC50 strictly below it is called met; any IC50 meeting it or above is called not met.

compound=CC1(C)C(N)=N[C@](C)(c2cc(Oc3nccc4ccccc34)ccc2F)CS1(=O)=O qualitative_label=met
compound=COc1cnc(C(=O)Nc2ccc(F)c([C@]3(C)CS(=O)(=O)[C@](C)(F)C(N)=N3)c2)cn1 qualitative_label="not met"
compound=Cc1cc(C#N)cnc1C(=O)Nc1ccc(F)c([C@]2(C)CS(=O)(=O)C(C)(C)C(N)=N2)c1 qualitative_label=met
compound=Cc1nc(C(=O)Nc2ccc(F)c([C@]3(C)CS(=O)(=O)C(C)(C)C(N)=N3)c2)cs1 qualitative_label="not met"
compound=Cc1cc(C(F)F)cnc1C(=O)Nc1ccc(F)c([C@@]2(C)N=C(N)C3(CC3)S(=O)(=O)[C@H]2F)c1 qualitative_label=met
compound=Cc1cc(-c2cnc(Oc3ccc(F)c([C@]4(C)CS(=O)(=O)C(C)(C)C(N)=N4)c3)c(F)c2)on1 qualitative_label=met
compound="COc1cnc(C(=O)Nc2ccc(F)c(C3(C(F)F)CS(=O)(=O)C(C)(C)C(N)=N3)c2)cn1 (stereo not drawn)" qualitative_label="not met"
compound=CC1(C)C(N)=N[C@](C)(c2cc(Oc3cc(-c4ccc(Cl)cn4)ccn3)ccc2F)CS1(=O)=O qualitative_label=met
compound=Cc1cc(Cl)cnc1C(=O)Nc1ccc(F)c([C@@]2(CF)CS(=O)(=O)C3(CC3)C(N)=N2)c1 qualitative_label="not met"
compound=CC1(C)C(N)=N[C@](C)(c2cc(Nc3nncc4cc(C#N)cnc34)ccc2F)CS1(=O)=O qualitative_label="not met"
compound=CC(C)c1c(C(=O)Nc2ccc(F)c([C@]3(CF)CS(=O)(=O)C(C)(C)C(N)=N3)c2)nc2ccc(Cl)cn12 qualitative_label="not met"
compound="CC1[C@@](C)(c2cc(NC(=O)c3ccc(Cl)cn3)ccc2F)N=C(N)[C@](C)(F)S1(=O)=O (stereo partly drawn)" qualitative_label=met
compound=CC1(C)C(N)=N[C@](CF)(c2cc(NC(=O)c3cnc(OCC(F)(F)F)cn3)ccc2F)CS1(=O)=O qualitative_label="not met"
compound=CC1(C)C(N)=N[C@](CF)(c2cc(NC(=O)c3cnc(OCC4CC4)cn3)ccc2F)CS1(=O)=O qualitative_label="not met"

###

System: Aβ40 in conditioned medium of cells stably expressing Amyloid Precursor Protein (APP)
experiment.notes: In vitro BACE cell-based assay (HEK cell assay), Aβ40 sandwich ELISA
condition.summary: Homo sapiens, HEK293; Aβ40, 24 h incubation
With a cut-off of 0.01 µM, any IC50 strictly below it is called 1.0; any IC50 meeting it or above is called 0.0.

compound=CC1(C)C(N)=N[C@](C)(c2cc(Oc3ccc4ccccc4c3)ccc2F)CS1(=O)=O target_or_test_system="Aβ40 in conditioned medium of cells stably expressing Amyloid Precursor Protein (APP)" qualitative_label=0.0
compound=COc1ccc(C(=O)Nc2ccc(F)c([C@]3(C)CS(=O)(=O)C(C)(C)C(N)=N3)c2)nc1 target_or_test_system="Aβ40 in conditioned medium of cells stably expressing Amyloid Precursor Protein (APP)" qualitative_label=1.0
compound=CC1(C)C(N)=N[C@](C)(c2cc(Nc3ncc(F)c4cc(C#N)cnc34)ccc2F)CS1(=O)=O target_or_test_system="Aβ40 in conditioned medium of cells stably expressing Amyloid Precursor Protein (APP)" qualitative_label=1.0
compound=COc1cnc2c(Nc3ccc(F)c([C@]4(C(F)F)CS(=O)(=O)C(C)(C)C(N)=N4)c3)nccc2c1 target_or_test_system="Aβ40 in conditioned medium of cells stably expressing Amyloid Precursor Protein (APP)" qualitative_label=0.0
compound=CC1(C)C(N)=N[C@](C)(c2cc(NC(=O)c3ccc(Cl)cn3)cc(F)c2F)CS1(=O)=O target_or_test_system="Aβ40 in conditioned medium of cells stably expressing Amyloid Precursor Protein (APP)" qualitative_label=1.0
compound=Cc1nc2c(Nc3ccc(F)c([C@]4(C)CS(=O)(=O)C(C)(C)C(N)=N4)c3)nccc2s1 target_or_test_system="Aβ40 in conditioned medium of cells stably expressing Amyloid Precursor Protein (APP)" qualitative_label=0.0
compound=CC1(C)C(N)=N[C@](C)(c2cc(NC(=O)c3cnc(C(F)(F)F)cn3)ccc2F)CS1(=O)=O target_or_test_system="Aβ40 in conditioned medium of cells stably expressing Amyloid Precursor Protein (APP)" qualitative_label=0.0
compound=COc1cnc2c(Nc3ccc(F)c([C@]4(C)CS(=O)(=O)[C@@](C)(F)C(N)=N4)c3)nccc2c1 target_or_test_system="Aβ40 in conditioned medium of cells stably expressing Amyloid Precursor Protein (APP)" qualitative_label=0.0
compound=COc1cnc(C(=O)Nc2ccc(F)c([C@]3(C)CS(=O)(=O)C(C)(C)C(N)=N3)n2)cn1 target_or_test_system="Aβ40 in conditioned medium of cells stably expressing Amyloid Precursor Protein (APP)" qualitative_label=0.0
compound="COc1cnc(C(=O)Nc2ccc(F)c(C3(C(F)(F)F)CS(=O)(=O)C(C)(C)C(N)=N3)c2)cn1 (stereo in doubt)" target_or_test_system="Aβ40 in conditioned medium of cells stably expressing Amyloid Precursor Protein (APP)" qualitative_label=0.0
compound=COc1cc(F)c2c(Nc3ccc(F)c([C@]4(C)CS(=O)(=O)C(C)(C)C(N)=N4)c3)ncnc2c1 target_or_test_system="Aβ40 in conditioned medium of cells stably expressing Amyloid Precursor Protein (APP)" qualitative_label=0.0
compound=COc1cnc2c(Nc3ccc(F)c([C@]4(C)CS(=O)(=O)CC(N)=N4)c3)nccc2c1 target_or_test_system="Aβ40 in conditioned medium of cells stably expressing Amyloid Precursor Protein (APP)" qualitative_label=0.0
compound=CC1(C)C(N)=N[C@](C)(c2cc(Nc3nccc4cc(C#N)cnc34)ccc2F)CS1(=O)=O target_or_test_system="Aβ40 in conditioned medium of cells stably expressing Amyloid Precursor Protein (APP)" qualitative_label=1.0
compound=COc1cnc(C(=O)Nc2ccc(F)c([C@]3(C)CS(=O)(=O)CC(N)=N3)c2)cn1 target_or_test_system="Aβ40 in conditioned medium of cells stably expressing Amyloid Precursor Protein (APP)" qualitative_label=0.0
compound=COc1cnc2c(Nc3ccc(F)c([C@]4(C)CS(=O)(=O)[C@@](C)(F)C(N)=N4)c3)nccc2n1 target_or_test_system="Aβ40 in conditioned medium of cells stably expressing Amyloid Precursor Protein (APP)" qualitative_label=0.0

###

target.or.test.system: Beta Secretase enzyme (BACE1) (Homo sapiens, UniProt P56817)
Sequence (P56817 46-501): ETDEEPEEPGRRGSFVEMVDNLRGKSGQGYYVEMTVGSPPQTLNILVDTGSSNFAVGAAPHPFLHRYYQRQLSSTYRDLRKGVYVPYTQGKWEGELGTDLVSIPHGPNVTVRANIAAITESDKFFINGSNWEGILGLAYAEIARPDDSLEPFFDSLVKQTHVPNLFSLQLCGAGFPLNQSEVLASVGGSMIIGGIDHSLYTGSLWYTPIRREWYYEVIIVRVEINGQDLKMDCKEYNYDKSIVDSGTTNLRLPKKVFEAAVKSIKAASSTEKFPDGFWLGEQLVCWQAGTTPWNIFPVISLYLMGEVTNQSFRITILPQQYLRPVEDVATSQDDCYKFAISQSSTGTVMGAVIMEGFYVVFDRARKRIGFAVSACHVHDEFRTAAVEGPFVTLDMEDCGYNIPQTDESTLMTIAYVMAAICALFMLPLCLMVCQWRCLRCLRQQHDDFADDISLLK
experiment.notes: In vitro enzymatic BACE FRET assay
Assay type: biochemical
condition.summary: average IC50; read-out: BACE1 FRET assay IC50
readout.label: log10 IC50 (log10 of the value in nM)

compound="Cc1cc(Cl)cnc1C(=O)Nc1cnc(F)c([C@]2(C)CS(=O)(=O)C3(CC3)C(N)=N2)c1 [Example 186]" number=0.38
compound="COc1cnc(C(=O)Nc2ccc(F)c([C@]3(C)CS(=O)(=O)[C@](C)(F)C(N)=N3)c2)cn1 [Example 176]" number=0.45
compound="Cc1cc(OC(F)F)cnc1C(=O)Nc1ccc(F)c([C@@]2(C)N=C(N)C3(CC3)S(=O)(=O)[C@H]2F)c1 [Example 203]" number=-0.32
compound="Cc1cc(OC(F)F)cnc1C(=O)Nc1ccc(F)c([C@@]2(C)N=C(N)C3(CC3)S(=O)(=O)[C@@H]2F)c1 [Example 202]" number=0.18
compound="C[C@@]1(c2cc(Br)cnc2F)CS(=O)(=O)C2(CC2)C(N)=N1 [Example 455]" number=4.10
compound="Cc1cc(OC(F)F)cnc1C(=O)Nc1ccc(F)c([C@@]2(CF)CS(=O)(=O)C3(CC3)C(N)=N2)c1 [Example 218]" number=2.18
compound="C[C@@]1(c2cc(NC(=O)c3ccc(Cl)cn3)ccc2F)CS(=O)(=O)C2(CC2)C(N)=N1 [Example 199]" number=0.28
compound="Cc1cc(C(F)F)cnc1C(=O)Nc1ccc(F)c([C@@]2(C)N=C(N)C3(CC3)S(=O)(=O)[C@@H]2F)c1 [Example 206]" number=0.28
compound="COCc1cc(Cl)cnc1C(=O)Nc1ccc(F)c([C@]2(CF)CS(=O)(=O)C(C)(C)C(N)=N2)c1 [Example 458]" number=-0.05
compound="NC1=N[C@](CF)(c2cc(Br)ccc2F)CS(=O)(=O)C12CCC2 [Example 172]" number=3.55
compound="Cc1cc(Cl)cnc1C(=O)Nc1ccc(F)c([C@@]2(CF)CS(=O)(=O)C3(CC3)C(N)=N2)c1 [Example 215]" number=2.33
compound="C[C@@]1(c2cc(Br)ccc2F)CS(=O)(=O)C2(CCOC2)C(N)=N1 (mixture of isomers) [Example 181]" number=4.21
compound="C[C@]1(c2cc(NC(=O)c3ccc(Cl)cn3)ccc2F)N=C(N)C2(CC2)S(=O)(=O)[C@H]1F [Example 201]" number=-0.21
compound="Cc1cc(OC(F)F)cnc1C(=O)Nc1cnc(F)c([C@]2(C)CS(=O)(=O)C3(CC3)C(N)=N2)c1 [Example 454]" number=0.49
